B1: TPR 5TU (parent)
chain: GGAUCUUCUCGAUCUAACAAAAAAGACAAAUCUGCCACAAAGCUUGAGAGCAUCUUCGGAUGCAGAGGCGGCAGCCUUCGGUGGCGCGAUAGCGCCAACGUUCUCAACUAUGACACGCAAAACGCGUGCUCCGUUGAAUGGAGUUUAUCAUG

Variants of: B1
Assay: polymerase ribozyme fitness, log enrichment relative to wild type (log ratio); higher = more active; in vitro selection for triplet polymerase activity
Fewer inactive variants are shown than the library holds.
PROPERTY_LABEL: polymerase ribozyme fitness (log ratio)
Returns: the value as a bare number; no unit string appended.

What does the record list as polymerase ribozyme fitness (log ratio) for A30G G46A A107U ?
-4.03
